TEST_TARGET: human TLR8 (Homo sapiens (Human), UniProt Q9NR97)
Sequence (Q9NR97 27-1041): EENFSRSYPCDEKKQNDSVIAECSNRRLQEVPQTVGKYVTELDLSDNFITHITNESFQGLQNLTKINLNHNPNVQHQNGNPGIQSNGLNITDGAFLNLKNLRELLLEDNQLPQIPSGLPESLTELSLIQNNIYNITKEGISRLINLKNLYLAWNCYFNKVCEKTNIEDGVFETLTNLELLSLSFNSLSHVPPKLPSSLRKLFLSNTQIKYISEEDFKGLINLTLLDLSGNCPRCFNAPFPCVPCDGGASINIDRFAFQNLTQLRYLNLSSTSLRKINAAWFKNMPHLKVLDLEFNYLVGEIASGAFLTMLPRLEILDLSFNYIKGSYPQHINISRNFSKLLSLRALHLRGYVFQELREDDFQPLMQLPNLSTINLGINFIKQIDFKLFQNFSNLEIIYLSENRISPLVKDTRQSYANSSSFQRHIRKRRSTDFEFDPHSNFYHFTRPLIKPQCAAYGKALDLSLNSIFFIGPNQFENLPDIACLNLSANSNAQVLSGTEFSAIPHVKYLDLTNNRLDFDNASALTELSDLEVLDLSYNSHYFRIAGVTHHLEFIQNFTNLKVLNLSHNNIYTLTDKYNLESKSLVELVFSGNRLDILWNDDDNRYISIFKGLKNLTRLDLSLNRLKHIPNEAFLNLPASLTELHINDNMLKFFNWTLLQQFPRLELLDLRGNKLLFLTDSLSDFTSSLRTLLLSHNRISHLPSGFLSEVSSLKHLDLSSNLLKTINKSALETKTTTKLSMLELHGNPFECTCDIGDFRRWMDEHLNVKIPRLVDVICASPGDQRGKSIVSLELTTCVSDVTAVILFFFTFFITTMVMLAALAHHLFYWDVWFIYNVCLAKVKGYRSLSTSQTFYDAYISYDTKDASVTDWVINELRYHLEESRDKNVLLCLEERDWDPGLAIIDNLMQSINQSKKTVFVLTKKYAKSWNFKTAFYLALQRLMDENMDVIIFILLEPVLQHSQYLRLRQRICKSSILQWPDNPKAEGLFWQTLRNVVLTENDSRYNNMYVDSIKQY
METHOD: TLR8 inhibition reporter assay (HEK-Blue SEAP);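 note: SEAP driven by IFN-β minimal promoter carrying NF-κB and AP-1 sites, compounds dosed 0.05 nM to 50 µM for 22 h, inhibition scaled between agonist-plus-DMSO and reference-inhibitor wells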
PARTICULARS: read-out: TLR8 IC50; HEK-Blue human TLR8 cells, R848 15.9 μM
pIC50: −log10 of the molar value.
Values of pIC50 greater than or equal to 8 map to Satisfied; values below map to Not satisfied.

Query :: Quick check, pIC50 >= 8? Cc1c(-c2[nH]c3ccc(C4CCC(O)(CN)CC4)nc3c2C(C)C)cn2ncnc2c1C (centres unmarked) [Example 1035]
Result :: Not satisfied

Query :: Kindly determine if pIC50 recorded for Cc1c(-c2[nH]c3ccc(N4CCN(C(=O)CN(C)C(C)C)C[C@H]4C)nc3c2C(C)C)cn2ncnc2c1C [Example 933] is above or exactly 8.
Result :: Not satisfied

Query :: Is reported pIC50 greater than or equal to 8 here: Cc1c(-c2[nH]c3ccc(N4C5CNCC4C5)nc3c2C(C)C)cn2ncnc2c1C [Example 978]
Result :: Satisfied

Query :: Item Cc1c(-c2[nH]c3ccc(C4CCC(N5CC(O)C5)CC4)nc3c2C(C)C)cn2ncnc2c1C (centres unmarked) [Example 1049] with pIC50 of 8 or above?
Result :: Satisfied

Query :: For this compound, is measured pIC50 8 or higher? Cc1c(-c2[nH]c3ccc(N4CCN[C@H](CO)C4)nc3c2C(C)C)cn2ncnc2c1C [Example 987]
Result :: Satisfied

Query :: Does CCCCN(C)CC(=O)N1CCN(c2ccc3[nH]c(-c4cn5ncnc5c(C)c4C)c(C(C)C)c3n2)CC1 [Example 874] have a reported pIC50 of at least 8?
Result :: Satisfied

Query :: Determine whether measured pIC50 meets or exceeds 8 for Cc1c(-c2[nH]c3ccc(N4C[C@H](C)NC[C@H]4C)nc3c2C(C)C)cn2ncnc2c1C [Example 990]
Result :: Satisfied

----------
TEST_TARGET: human TLR7 (Homo sapiens (Human))
Sequence (Q9NYK1 27-1049): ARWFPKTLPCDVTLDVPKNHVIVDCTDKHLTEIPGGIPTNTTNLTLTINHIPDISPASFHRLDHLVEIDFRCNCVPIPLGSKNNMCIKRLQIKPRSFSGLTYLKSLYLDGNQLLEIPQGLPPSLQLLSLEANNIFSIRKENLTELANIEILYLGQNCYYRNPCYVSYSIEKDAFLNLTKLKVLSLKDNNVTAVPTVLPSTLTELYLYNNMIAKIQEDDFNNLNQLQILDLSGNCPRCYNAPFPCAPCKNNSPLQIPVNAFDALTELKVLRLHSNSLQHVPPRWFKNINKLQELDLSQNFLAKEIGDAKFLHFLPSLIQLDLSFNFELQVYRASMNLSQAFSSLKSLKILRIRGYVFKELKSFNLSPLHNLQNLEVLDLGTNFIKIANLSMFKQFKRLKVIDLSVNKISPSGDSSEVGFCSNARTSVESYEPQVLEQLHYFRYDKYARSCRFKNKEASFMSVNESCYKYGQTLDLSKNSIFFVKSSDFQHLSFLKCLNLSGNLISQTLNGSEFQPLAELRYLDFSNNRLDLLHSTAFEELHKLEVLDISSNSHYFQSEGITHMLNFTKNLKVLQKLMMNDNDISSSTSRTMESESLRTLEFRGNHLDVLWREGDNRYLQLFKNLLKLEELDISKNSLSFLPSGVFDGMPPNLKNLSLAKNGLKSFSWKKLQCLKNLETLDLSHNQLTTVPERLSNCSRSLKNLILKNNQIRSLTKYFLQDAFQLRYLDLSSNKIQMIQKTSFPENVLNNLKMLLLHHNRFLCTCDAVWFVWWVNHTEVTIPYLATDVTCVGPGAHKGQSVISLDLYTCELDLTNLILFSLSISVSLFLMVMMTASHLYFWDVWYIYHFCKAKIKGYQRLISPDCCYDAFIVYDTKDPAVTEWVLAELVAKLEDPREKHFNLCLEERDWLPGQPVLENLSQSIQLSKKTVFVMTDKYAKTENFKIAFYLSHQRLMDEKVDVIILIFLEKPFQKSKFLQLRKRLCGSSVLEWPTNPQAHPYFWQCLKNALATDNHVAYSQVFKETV
METHOD: TLR7 inhibition reporter assay (HEK-Blue SEAP)
Assay type: cell-based
PARTICULARS: HEK-Blue cells overexpressing human TLR7, gardiquimod 7.5 μM stimulation, SEAP reporter
ASSAY_READOUT: pIC50
Convention used: pIC50 is expressed as -log10 of the molar concentration.

Recorded pIC50, per entry:
Query :: Can you look up the measured pIC50 of CC(C)c1c(-c2cn(C)c3ncccc23)[nH]c2ccc(N3CCC(N(CC(=O)N(C)C)CC(=O)N(C)C)CC3)nc12 [Example 54] for me?
Result :: 8.54

Query :: Find the recorded pIC50 belonging to COc1cc(-c2[nH]c3ccc(N4CCN(CCC(N)=O)CC4)nc3c2C(C)C)cn2ncnc12 [Example 137] and report it.
Result :: 8.25

Next:
Query :: Requested field: pIC50. Item: Cc1c(-c2[nH]c3ccc(N4CCC(N(C)Cc5ncccn5)CC4)nc3c2C(C)C)cn2ncnc2c1C [Example 60]
Result :: 8.25

Query :: Entry COc1cc(-c2[nH]c3cc(C)c(C4CCC(N(C)CCC#N)CC4)nc3c2C(C)C)cn2ncnc12 (stereo not shown) [Example 340] has what pIC50?
Result :: 8.85

Query :: Which pIC50 is reported for this molecule? Cc1c(-c2[nH]c3ccc(N4CC(N(C)C5CCOCC5)C4)nc3c2C(C)C)cn2ncnc2c1C [Example 24]
Result :: 7.40

Query :: Which pIC50 is reported for this molecule? CNC1CCC(c2ccc3[nH]c(-c4cn5ncnc5c(C)c4C)c(C(C)C)c3n2)CC1 (single isomer, unassigned) [Example 369]
Result :: 9.34

Query :: Quick one: pIC50 for Cc1c(-c2[nH]c3ccc(C4CCC(N(C)C)CC4)nc3c2C(C)C)cn2ncnc2c1C (stereo not shown) [Example 353] ?
Result :: 9.19
